test: Inhibition of human SphK2 expressed in Saccharomyces cerevisiae KYA1 assessed as yeast growth measured after 24 hrs
Endpoint name: EC50 (nM)

Molecule | EC50, nM
CC(C)(C)c1cc(-c2noc([C@@H]3CCCN3C(=N)N)n2)ccc1OCc1ccc(C(F)(F)F)cc1 | 73
CC(C)c1cc(-c2noc([C@@H]3CCCN3C(=N)N)n2)ccc1OCc1ccc(C(F)(F)F)cc1 | 32
N=C(N)N1CCC[C@H]1c1nc(-c2ccc(OCc3ccc(C(F)(F)F)cc3)c(C(F)(F)F)c2)no1 | 59
CCc1cc(-c2noc([C@@H]3CCCN3C(=N)N)n2)ccc1OCc1ccc(C(F)(F)F)cc1 | 146
N=C(N)N1CCC[C@H]1c1nc(-c2ccc(OCc3ccc(C(F)(F)F)cc3)c(C3CC3)c2)no1 | 50

(a) CCCc1cc(-c2noc([C@@H]3CCCN3C(=N)N)n2)ccc1OCc1ccc(C(F)(F)F)cc1
(b) C=CCc1cc(-c2noc([C@@H]3CCCN3C(=N)N)n2)ccc1OCc1ccc(C(F)(F)F)cc1
Exam item: Endpoint returns the identifier whose EC50 is numerically larger, either a or b . Pick one and reply with its label.
Marked response: b
(b: 84 nM, a: 37 nM)
